Kindly supply the reported EC50 values for the records listed here.
target: RNA-binding protein pos-1 (Caenorhabditis elegans); assay: inhibitors of POS-1/mex-3 RNA binding, dose response, biochemical, fluorescence polarization (AID 1964);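 also: purified POS-1 fused to maltose binding protein made in E. coli; potency of compounds blocking POS-1 binding to fluorescent RNA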
Sequence (G5EF15 whole entry, the tested form may be a part): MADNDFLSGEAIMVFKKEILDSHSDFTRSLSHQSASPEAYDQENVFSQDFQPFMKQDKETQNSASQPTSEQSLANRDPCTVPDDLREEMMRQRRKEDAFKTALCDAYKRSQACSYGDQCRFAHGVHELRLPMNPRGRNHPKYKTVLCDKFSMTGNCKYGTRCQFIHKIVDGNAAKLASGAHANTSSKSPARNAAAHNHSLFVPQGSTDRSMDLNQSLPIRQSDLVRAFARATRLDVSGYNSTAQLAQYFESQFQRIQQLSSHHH
Activity calls are given as the source filed them. Rule as the data show it: actives have a measured EC50 and inactives only a lower limit.

Example molecules with recorded EC50:
1. CN(C)C1=NC(=O)/C(=C/c2ccc(-c3ccc(S(N)(=O)=O)cc3)o2)S1    > 300 µM (not active)
2. CN1C(=O)NC(=O)/C(=C/c2ccc[nH]2)C1=O    > 300 µM (not active)
3. CCCCN(C)C(=O)CCC(=O)NNc1nc2ccccc2c2nc(C)nn12    > 300 µM (not active)
4. COCCCNC(CC(=O)Nc1cc(C)cc(C)c1)C(=O)O (stereo not drawn)    > 300 µM (not active)
5. Cc1ccc(S(=O)(=O)/N=C2\C=C(Nc3cccc(C(=O)O)c3)C(=O)c3ccccc32)c(C)c1    68.6 µM (active)
6. CCN1CCN(Cc2c(C(=O)N/N=C(\C)c3ccc(Cl)cc3)nnn2-c2nonc2N)CC1    > 300 µM (not active)
7. CC(C)c1ccc(/C=C(\NC(=O)c2ccccc2)C(=O)NCCN2CCOCC2)cc1    > 300 µM (not active)
8. Cc1ccc([N+](=O)[O-])cc1S(=O)(=O)Nc1ccc(O)c(Sc2nc[nH]n2)c1    9.8 µM (active)
9. CCN(CC)c1ccc(/C=C2\C(=O)NC(=S)N(C)C2=O)o1    > 300 µM (inconclusive)
10. O=C(N/N=C\c1c(O)ccc2ccccc12)c1cncc(Br)c1    > 300 µM (not active)

# map each molecule to its EC50
1. O=C(NNC(=O)c1ccccc1O)c1cccc(Br)c1
2. CSCC(C)N1CCC(Oc2cccc(C(=O)NCc3ccccn3)c2)CC1 (stereo not drawn)

["41 µM (active)", "34.9 µM (active)"]

Sample Cc1nc(/C=C2\C(=O)Nc3ccccc32)c[nH]1 ; EC50 observed: > 300 µM (not active)
